test: Solubility in isopropyl acetate; type: physicochemical; details: 25 °C, organic solvent or mixture, solubility
observationType: solubility (µg/mL)
Respond with the bare value in µg/mL.

In: Item C[C@@H](O[C@H]1OCCN(Cc2nn[nH]c2CN(C)C)[C@H]1c1ccc(F)cc1)c1cc(C(F)(F)F)cc(C(F)(F)F)c1.Cl [Form I] has what recorded solubility?
Out: 7400
